PROTOCOL_SUMMARY: MTT cell viability assay, NHDF
Format: cell-based, human
ASSAY_SETUP: human; 10 µM, 72 h, mean ± SD; read-out: cell viability percentage in relation to control, NHDF
ENDPOINT: viability at 72 h, 10 µM (%)
Hi! Could you send only the number? It should be in %, unit omitted.

Q: Return reported viability at 72 h, 10 µM; argument: CN1C=C/C(=C/c2ccc3ccccc3[n+]2C)c2ccccc21
A: 5.72

###

PROTOCOL_SUMMARY: MTT cell viability assay, NHDF
Format: cell-based, human
ASSAY_SETUP: human, normal human dermal fibroblasts (NHDF); 10 µM, 72 h, mean ± SD; read-out: cell viability percentage in relation to control, NHDF
The label is 1 for viability at 72 h, 10 µM below 20% and -1 for viability at 72 h, 10 µM equal to or exceeding 20%.

Q: Does this compound meet the criterion viability at 72 h, 10 µM < 20%? CCN1C(=Cc2sc3ccc(NC(C)=O)cc3[n+]2CC)Sc2ccccc21.Cc1ccc(S(=O)(=O)[O-])cc1 [Dye 7]
A: -1

Q: Does this compound meet the criterion viability at 72 h, 10 µM < 20%? CN1C(=Cc2oc3ccccc3[n+]2C)C=Cc2ccccc21.Cc1ccc(S(=O)(=O)[O-])cc1 [Dye 5]
A: 1

Q: Does this compound meet the criterion viability at 72 h, 10 µM < 20%? CCN1C(=Cc2n(CC)c3ccc([N+](=O)[O-])cc3[n+]2CC)Sc2ccccc21.[I-] [Dye 9]
A: -1

Q: Does this compound meet the criterion viability at 72 h, 10 µM < 20%? CCCCCN1C(=Cc2sc3ccccc3[n+]2C)Sc2ccccc21.[I-] [Dye 1]
A: 1

Q: Does this compound meet the criterion viability at 72 h, 10 µM < 20%? CCN1C(=Cc2sc3cc([N+](=O)[O-])ccc3[n+]2CC)Sc2ccccc21.Cc1ccc(S(=O)(=O)[O-])cc1 [Dye 10]
A: -1

Q: Does this compound meet the criterion viability at 72 h, 10 µM < 20%? CN1C(=Cc2n(C)c3ccccc3[n+]2C)Sc2ccccc21.[I-] [Dye 4]
A: -1

Q: Does this compound meet the criterion viability at 72 h, 10 µM < 20%? CCN1C(=Cc2sc3ccc(N)cc3[n+]2CC)Sc2ccccc21 [Dye 8]
A: 1

Q: Does this compound meet the criterion viability at 72 h, 10 µM < 20%? O=c1[nH]cc(F)c(=O)[nH]1 [5-FU, 5-fluorouracil, reference compound]
A: 1

Q: Does this compound meet the criterion viability at 72 h, 10 µM < 20%? CCCCCCCCCCN1C(=Cc2sc3ccccc3[n+]2C)Sc2ccccc21.[I-] [Dye 2]
A: 1

Q: Does this compound meet the criterion viability at 72 h, 10 µM < 20%? CCN1C(=Cc2sc3cc(N)ccc3[n+]2CC)Sc2ccccc21.[I-] [Dye 11]
A: 1

Q: Does this compound meet the criterion viability at 72 h, 10 µM < 20%? CN1C(=Cc2sc3ccccc3[n+]2C)C=Cc2ccccc21 [Dye 6]
A: 1

Q: Does this compound meet the criterion viability at 72 h, 10 µM < 20%? CN1C(=Cc2sc3ccccc3[n+]2C)Oc2ccccc21.Cc1ccc(S(=O)(=O)[O-])cc1 [Dye 3]
A: -1

###

Test system: Caco-2 colorectal adenocarcinoma cells
PROTOCOL_SUMMARY: MTT cell viability assay, Caco-2
ASSAY_SETUP: Homo sapiens, Caco-2, 72 h, read-out: IC50 Caco-2
Record form. Attribute: IC50. Fill in for each entry.
Hi! Could you send only the number? It should be in nM, unit omitted.

Q: Return reported IC50; argument: CCN1C(=Cc2sc3cc([N+](=O)[O-])ccc3[n+]2CC)Sc2ccccc21.Cc1ccc(S(=O)(=O)[O-])cc1
A: 140

Q: Return reported IC50; argument: CN1C(=Cc2n(C)c3ccccc3[n+]2C)Sc2ccccc21.[I-]
A: 230

Q: Return reported IC50; argument: CN1C(=Cc2oc3ccccc3[n+]2C)C=Cc2ccccc21.Cc1ccc(S(=O)(=O)[O-])cc1
A: 10

Q: Return reported IC50; argument: CCN1C(=Cc2sc3cc(N)ccc3[n+]2CC)Sc2ccccc21.[I-]
A: 170

###

System: MCF-7 breast adenocarcinoma cells
PROTOCOL_SUMMARY: MTT cell viability assay, MCF-7
ASSAY_SETUP: Homo sapiens, MCF7, 72 h, read-out: IC50 MCF-7, MCF-7, 72 h incubation, MTT
Protocol: To evaluate the anticancer potential of monomethine cyanine dyes 1–12, a cell proliferation study was conducted using the 3-(4,5-dimethylthiazol-2-yl)-2,5-diphenyltetrazolium bromide (MTT) assay. For this preliminary evaluation, a concentration of 10 µM for each dye was tested, with the well-established chemotherapy agent 5-fluorouracil (5-FU) serving as a positive control. […]
ENDPOINT: pIC50
Conceptually, pIC50 converts a concentration in mol/L into minus its log10.

Q: Return reported pIC50; argument: CN1C(=Cc2oc3ccccc3[n+]2C)C=Cc2ccccc21.Cc1ccc(S(=O)(=O)[O-])cc1 [Dye 5]
A: 5.42

Q: Return reported pIC50; argument: CCN1C(=Cc2sc3cc(N)ccc3[n+]2CC)Sc2ccccc21.[I-] [Dye 11]
A: 6.48

Q: Return reported pIC50; argument: CCN1C(=Cc2sc3cc([N+](=O)[O-])ccc3[n+]2CC)Sc2ccccc21.Cc1ccc(S(=O)(=O)[O-])cc1 [Dye 10]
A: 4.88

Q: Return reported pIC50; argument: CCN1C(=Cc2sc3ccc(NC(C)=O)cc3[n+]2CC)Sc2ccccc21.Cc1ccc(S(=O)(=O)[O-])cc1 [Dye 7]
A: 6.42

These measurements were taken from paper PMC11642940.
